# Test system: 786-0 renal
# assayText: NCI tumour cell line growth inhibition, 48 h
measuredProperty: TGI

// solved cases for TGI follow
{"columns": ["compound", "target", "measuredProperty", "resultValue"],
 "data": [
  ["CN(CCCCN)c1ccc2c(=O)[nH][nH]c(=O)c2c1", "786-0 renal", "TGI", "> 100 µM"],
  ["COC(=O)C1=C(C)NC2=C(C(=O)c3ccccc32)C1c1cn[nH]c1-c1ccccc1 (stereo not drawn)", "786-0 renal", "TGI", "> 100 µM"]
]}

// switching to the query compound
The compound listed as CC(C)OC(=O)c1cccnc1/C=N/O shows TGI equal to > 100 µM

Values were extracted from PubChem BioAssay (NCI).
